These entries and their values trace back to paper PMC6835155.

molecular target: LIMK2KD (Homo sapiens, UniProt P53671); construct: The cDNA coding for LIMK2 residues 330 to 632 was PCR amplified; His6 (N, cleaved yes); made in house; host or cells: baculovirus; Sf9 for virus, TriEx insect cells for expression; test: Differential (dynamic) scanning fluorimetry (DSF) assay, LIMK2KD; type: binding; conditions: LIMK2KD, compound 10 µM, single shot; read-out: TM Shift LIMK2 (K)
Sequence (P53671 330-632): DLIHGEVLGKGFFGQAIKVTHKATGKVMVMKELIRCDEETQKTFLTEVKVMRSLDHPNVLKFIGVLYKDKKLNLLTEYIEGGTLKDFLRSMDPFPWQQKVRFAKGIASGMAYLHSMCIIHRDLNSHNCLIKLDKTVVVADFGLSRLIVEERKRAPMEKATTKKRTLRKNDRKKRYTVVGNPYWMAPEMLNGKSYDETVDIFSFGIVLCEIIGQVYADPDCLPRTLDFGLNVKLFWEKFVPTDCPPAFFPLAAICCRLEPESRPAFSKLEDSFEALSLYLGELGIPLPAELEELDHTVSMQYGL
Heads up, the class ranges for ΔTm at 10 µM are A (below 0 °C), B (0 °C to below 0.9 °C), C (0.9 °C or more)

[
  {
    "compound": "Cn1cc(-c2ccc3nnc(Sc4ccc5ncccc5c4)n3n2)cn1",
    "labelValue": "B"
  },
  {
    "compound": "CCCS(=O)(=O)Nc1ccc(F)c(C(=O)c2c[nH]c3ncc(Cl)cc23)c1F",
    "labelValue": "C"
  },
  {
    "compound": "COc1cc(Nc2ncc(F)c(Nc3ccc4c(n3)N(COP(=O)(O)O)C(=O)C(C)(C)O4)n2)cc(OC)c1OC [Fostamatinib (R788), Fostamatinib]",
    "labelValue": "B"
  },
  {
    "compound": "O=C(Nc1ccc(OC(F)(F)F)cc1)c1sccc1NCc1ccnc2ccccc12",
    "labelValue": "C"
  },
  {
    "compound": "CCn1cc(-c2ccnc3[nH]c(-c4cccc(CN(C)C)c4)cc23)c(-c2ccc(NC(=O)N(C)C)cc2)n1",
    "labelValue": "A"
  },
  {
    "compound": "CCC(=O)Nc1cccc(Oc2nc(Nc3ccc(N4CCN(C)CC4)cc3OC)ncc2Cl)c1",
    "labelValue": "A"
  },
  {
    "compound": "C[C@H](NC(=O)/C(C#N)=C/c1cccc(Br)n1)c1ccccc1",
    "labelValue": "B"
  },
  {
    "compound": "Oc1c2ccccc2c2c3c(cccc13)N=N2",
    "labelValue": "C"
  },
  {
    "compound": "CC(C)CC(=O)Nc1[nH]nc2c1CN(C(=O)C1CCN(C)CC1)C2(C)C",
    "labelValue": "C"
  },
  {
    "compound": "COC(=O)[C@]12CCC(C)(C)C[C@H]1[C@H]1C(=O)C=C3[C@@]4(C)C=C(C#N)C(=O)C(C)(C)[C@@H]4CC[C@@]3(C)[C@]1(C)CC2",
    "labelValue": "B"
  },
  {
    "compound": "Cn1c(Nc2ccc(C(F)(F)F)cc2)nc2cc(Oc3ccnc(-c4ncc(C(F)(F)F)[nH]4)c3)ccc21",
    "labelValue": "C"
  },
  {
    "compound": "Clc1ccc(Nc2nnc(Cc3ccncc3)c3ccccc23)cc1 [Vatalanib (PTK787) 2HCl, Vatalanib]",
    "labelValue": "A"
  },
  {
    "compound": "Cc1csc(-c2nnc(Nc3ccc(Oc4ncccc4-c4ccnc(N)n4)cc3)c3ccccc23)c1",
    "labelValue": "A"
  }
]

###

target: LIMK1KD (Homo sapiens, UniProt P53667); construct: His6 (N, cleaved yes); made in house; host or cells: baculovirus; Sf9 for virus, TriEx insect cells for expression; test: Differential (dynamic) scanning fluorimetry (DSF) assay, LIMK1KD; type: binding; settings: 2 µM LIMK1KD, compound 10 µM, single shot; read-out: TM Shift LIMK1 (K)
Sequence (P53667 330-637): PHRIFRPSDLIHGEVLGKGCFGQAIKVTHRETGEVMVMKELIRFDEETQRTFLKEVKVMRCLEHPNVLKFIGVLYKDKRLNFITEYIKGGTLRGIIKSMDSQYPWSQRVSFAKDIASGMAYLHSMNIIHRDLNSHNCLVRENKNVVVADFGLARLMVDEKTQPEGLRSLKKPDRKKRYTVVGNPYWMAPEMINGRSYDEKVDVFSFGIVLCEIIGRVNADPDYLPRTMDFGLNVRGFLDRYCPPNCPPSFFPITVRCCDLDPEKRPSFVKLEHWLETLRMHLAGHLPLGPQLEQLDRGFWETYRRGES
Counter-ions that a name gives are not always drawn.
Strictly below 1 °C in ΔTm at 10 µM: Condition met. Otherwise: Condition not met.

[
  {
    "compound": "CCN1CCN(Cc2ccc(-c3cc4c(N[C@H](C)c5ccccc5)ncnc4[nH]3)cc2)CC1",
    "labelValue": "Condition not met"
  },
  {
    "compound": "O=C(O)c1ccc(-c2c[nH]c3ncc(-c4ccccc4)cc23)cc1C1CCCC1",
    "labelValue": "Condition not met"
  },
  {
    "compound": "Cc1c(CN2CCN(C(=O)[C@H](C)O)CC2)sc2c(N3CCOCC3)nc(-c3cnc(N)nc3)nc12",
    "labelValue": "Condition not met"
  },
  {
    "compound": "O=c1cc(N2CCOCC2)oc2c(-c3ccccc3)cccc12",
    "labelValue": "Condition met"
  },
  {
    "compound": "CNC(=O)c1ccc(C)c(-n2c(C)cc(OCc3ccc(F)cc3F)c(Br)c2=O)c1",
    "labelValue": "Condition not met"
  },
  {
    "compound": "C=CC(=O)N1CCC[C@@H](n2nc(-c3ccc(Oc4ccccc4)cc3)c3c(N)ncnc32)C1",
    "labelValue": "Condition not met"
  },
  {
    "compound": "N#CC[C@H](C1CCCC1)n1cc(-c2ncnc3[nH]ccc23)cn1",
    "labelValue": "Condition not met"
  },
  {
    "compound": "CCn1c(-c2nonc2N)nc2c(C#CC(C)(C)O)ncc(OC[C@H]3CCCNC3)c21",
    "labelValue": "Condition met"
  },
  {
    "compound": "CCN(CC)CCCCNc1ncc2cc(-c3cc(OC)cc(OC)c3)c(NC(=O)NC(C)(C)C)nc2n1",
    "labelValue": "Condition not met"
  },
  {
    "compound": "C=CC(=O)Nc1cccc(Nc2nc(Nc3ccc(OCCOC)cc3)ncc2F)c1",
    "labelValue": "Condition not met"
  },
  {
    "compound": "Cc1ccc(F)c(NC(=O)Nc2ccc(-c3cccc4[nH]nc(N)c34)cc2)c1",
    "labelValue": "Condition not met"
  },
  {
    "compound": "CC1=C(C(=O)Nc2cc3cn[nH]c3cc2F)C(c2ccc(C(F)(F)F)cc2)CC(=O)N1 (stereo not shown) [GSK429286A]",
    "labelValue": "Condition met"
  },
  {
    "compound": "Cc1c(NC(=O)OC[C@@H]2COCCN2)cn2ncnc(Nc3ccc4c(cnn4Cc4cccc(F)c4)c3)c12",
    "labelValue": "Condition met"
  },
  {
    "compound": "Cc1cc(Nc2cc(N3CCN(C)CC3)nc(Sc3ccc(NC(=O)C4CC4)cc3)n2)[nH]n1",
    "labelValue": "Condition not met"
  },
  {
    "compound": "COc1cc2c(Nc3ccc(Br)cc3F)ncnc2cc1OCC1CCN(C)CC1 [Vandetanib (ZD6474), Vandetanib]",
    "labelValue": "Condition met"
  },
  {
    "compound": "CN[C@@H]1C[C@H]2O[C@@](C)([C@@H]1OC)n1c3ccccc3c3c4c(c5c6ccccc6n2c5c31)C(=O)NC4",
    "labelValue": "Condition not met"
  },
  {
    "compound": "COc1cc2c(N3CCN(C(=O)Nc4ccc(OC(C)C)cc4)CC3)ncnc2cc1OCCCN1CCCCC1",
    "labelValue": "Condition met"
  },
  {
    "compound": "CNC(=O)c1cc(Oc2ccc(NC(=O)Nc3ccc(Cl)c(C(F)(F)F)c3)c(F)c2)ccn1",
    "labelValue": "Condition met"
  },
  {
    "compound": "CCOc1cc2ncc(C#N)c(Nc3ccc(OCc4ccccn4)c(Cl)c3)c2cc1NC(=O)/C=C/CN(C)C",
    "labelValue": "Condition met"
  },
  {
    "compound": "Cc1c[nH]c(-c2cnc(NCCNc3ccc(C#N)cn3)nc2-c2ccc(Cl)cc2Cl)n1 [CHIR-99021 (CT99021) HCl]",
    "labelValue": "Condition not met"
  },
  {
    "compound": "Cn1cc(C2=C(c3ccc(Cl)cc3Cl)C(=O)NC2=O)c2ccccc21",
    "labelValue": "Condition met"
  },
  {
    "compound": "C#Cc1cccc(Nc2ncnc3cc(OCCOC)c(OCCOC)cc23)c1 [Erlotinib HCl (OSI-744), Erlotinib HCl]",
    "labelValue": "Condition met"
  },
  {
    "compound": "CO[C@H]1C[C@@H]2CC[C@@H](C)[C@@](O)(O2)C(=O)C(=O)N2CCCC[C@H]2C(=O)O[C@H]([C@H](C)C[C@@H]2CC[C@@H](OP(C)(C)=O)[C@H](OC)C2)CC(=O)[C@H](C)/C=C(\\C)[C@@H](O)[C@@H](OC)C(=O)[C@H](C)C[C@H](C)/C=C/C=C/C=C/1C",
    "labelValue": "Condition met"
  },
  {
    "compound": "COc1cc(OC)c(/C=C/S(=O)(=O)Cc2ccc(OC)c(NCC(=O)O)c2)c(OC)c1",
    "labelValue": "Condition not met"
  },
  {
    "compound": "NC(=O)c1ncn([C@@H]2O[C@H](CO)[C@@H](O)[C@H]2O)c1N",
    "labelValue": "Condition met"
  },
  {
    "compound": "Nc1nc(Nc2ccc(S(N)(=O)=O)cc2)nn1C(=O)c1c(F)cccc1F",
    "labelValue": "Condition not met"
  },
  {
    "compound": "C[C@H](Nc1ncnc2nc[nH]c12)c1cc2cccc(Cl)c2c(=O)n1-c1ccccc1",
    "labelValue": "Condition met"
  }
]
